Test system: MDR1
assay_info: in vitro
condition: dog, MDCK-MDR1, pH 7.4, MDCK-MDR1: Papp A-B (10^−6, cm/s)
Papp A→B at 120 min, 5 μM class ranges: lower band (below 2 ×10⁻⁶ cm/s), central band (2 ×10⁻⁶ cm/s to below 5 ×10⁻⁶ cm/s), upper band (5 ×10⁻⁶ cm/s or more)

Query: State the class of the compound shown: CN(c1cnc(-c2ccc(C3=CC(=O)NC3)cc2O)cn1)[C@@H]1CC2CC[C@H](N2)[C@@H]1F (single isomer, unassigned) [Compound 78E1]
Response: lower band

Query: Would you mind sorting CN(c1cnc(-c2ccc(-c3cn[nH]c3)cc2O)cn1)[C@H]1C[C@]2(C)CCC(N2)[C@H]1F (single isomer, unassigned) [Compound 28E1] into the appropriate category?
Response: central band

Query: Dear colleague, I would appreciate it if you could identify the bin for CN(c1cnc(-c2ccc(-c3cn[nH]c3)cc2O)cn1)[C@@H]1C[C@@]2(C)CCC[C@](C)(N2)[C@@H]1F [Compound 23E1] and reply at your convenience.
Response: upper band

Query: Quick check: band for CNC(=O)/C=C/c1cc(O)c(-c2cnc(N(C3CC3)[C@@H]3C[C@@]4(C)CC[C@](C)(N4)[C@@H]3F)cn2)cc1F [Compound 79E1]
Response: lower band

Query: Pick a category. Item: CN(c1cnc(-c2ccc(-c3cn[nH]c3)cc2O)cn1)[C@H]1C[C@@H]2COCC(N2)[C@H]1F (single isomer, unassigned) [Compound 72E2]
Response: upper band

Query: Please report the category associated with Cn1cc(-c2ccc(-c3cnc(N(C4CC4)[C@@H]4CC5CC[C@H](N5)[C@@H]4F)cn3)c(O)c2)cn1 (single isomer, unassigned) [Compound 49E1] , nothing else.
Response: central band

Query: Please let me know in which category the item COc1cc(-c2ccc(-c3cnc(N(C)[C@@H]4CC5CC[C@H](N5)[C@@H]4F)cn3)c(O)c2)ccn1 (single isomer, unassigned) [Compound 43E1] belongs.
Response: lower band

Query: Please indicate the class for Cn1cc(-c2cc(O)c(-c3cnc(N(C4CC4)[C@@H]4C[C@H]5CC[C@H](N5)[C@@H]4F)cn3)cc2F)cn1 [Compound 35E1] based on its Papp A→B at 120 min, 5 μM.
Response: central band

Query: Which of the defined bands does the recorded Papp A→B at 120 min, 5 μM of CN(c1cnc(-c2cc(F)c(-c3cnn(C)c3)cc2O)cn1)[C@H]1C[C@@H]2CCC(N2)[C@H]1F (single isomer, unassigned) [Compound 17E1] sit within?
Response: central band

Query: Classify this compound: CN(c1cnc(-c2ccc(-c3cnn(C)c3)cc2O)cn1)[C@H]1CC2CC[C@@H](N2)[C@H]1F (single isomer, unassigned) [Compound 3E2]
Response: upper band

* * *

Tested on: MDR1-MDCK cell monolayers
condition: dog, MDCK-MDR1, 120 min, 5 μM, pH 7.4
parameter_measured: MDCK-MDR1: % Recov A-B (%)
Give the value, in units of %, as a plain number.

Query: Recorded MDCK-MDR1: % Recov A-B (%) of COc1cc(-c2cc(O)c(-c3cnc(N(C4CC4)[C@@H]4CC5CC[C@H](N5)[C@@H]4F)cn3)cc2F)ccn1 (single isomer, unassigned) [Compound 36E1] , please.
Response: 8

Query: Returns the measured MDCK-MDR1: % Recov A-B (%) for the input compound. Input: O=c1cc(-c2ccc(-c3cnc(N(C4CC4)[C@@H]4CC5CC[C@H](N5)[C@@H]4F)cn3)c(O)c2)ccn1CF (single isomer, unassigned) [Compound 54E1]
Response: 64

Query: # input compound: CN(c1cnc(-c2ccc(-c3ccn(C)c(=O)c3)cc2O)cn1)[C@@H]1C[C@H]2CCC[C@H](N2)[C@@H]1F [Compound 5E1] ; wanted: its MDCK-MDR1: % Recov A-B (%)
Response: 84

Query: Look at this compound and give its reported MDCK-MDR1: % Recov A-B (%). CN(c1cnc(-c2cc(F)c(-c3cnn(C)c3)cc2O)cn1)[C@@H]1C[C@@]2(C)CC[C@](C)(N2)[C@@H]1F [Compound 58E1]
Response: 37

Query: Item under review: COc1cc(-c2cc(O)c(-c3cnc(N(C)[C@H]4C[C@@H]5CCC(N5)[C@H]4F)cn3)cc2F)cc(F)n1 (single isomer, unassigned) [Compound 31E2] . Reported MDCK-MDR1: % Recov A-B (%)?
Response: 59

Query: Fill in: MDCK-MDR1: % Recov A-B (%) of CN(c1cnc(-c2ccc(-c3cnn(C)c3)cc2O)cn1)[C@@H]1CC2CC(F)(F)[C@@H](C1)N2 (single isomer, unassigned) [Compound 10E1] is ___
Response: 59

Query: Return reported MDCK-MDR1: % Recov A-B (%); argument: CN(c1cnc(-c2ccc(-c3cn[nH]c3)cc2O)cn1)[C@H]1CC2CCC[C@@H](N2)[C@H]1F (single isomer, unassigned) [Compound 6E2]
Response: 70

Query: Item under review: CN(c1cnc(-c2ccc(-c3cn[nH]c3)cc2O)cn1)[C@H]1C[C@@H]2CCC(N2)[C@@H]1F (single isomer, unassigned) [Compound 27E2] . Reported MDCK-MDR1: % Recov A-B (%)?
Response: 80

Query: For the compound shown here, COc1cc(-c2ccc(-c3cnc(N(C)[C@H]4C[C@@H]5CCC(N5)[C@H]4F)cn3)c(O)c2)ccn1 (single isomer, unassigned) [Compound 43E2] , give the reported MDCK-MDR1: % Recov A-B (%).
Response: 12

Query: Entry COc1cc(-c2ccc(-c3cnc(N(C)[C@@H]4CC5COC[C@H](N5)[C@@H]4F)cn3)c(O)c2)ccn1 (single isomer, unassigned) [Compound 81E1] : reported MDCK-MDR1: % Recov A-B (%) = ?
Response: 28

Query: For the compound CNC(=O)/C=C/c1cc(O)c(-c2cnc(N(C3CC3)[C@@H]3C[C@@]4(C)CC[C@](C)(N4)[C@@H]3F)cn2)cc1F [Compound 79E1] , what MDCK-MDR1: % Recov A-B (%) is on record?
Response: 84

Query: Entry CN(c1cnc(-c2ccc(-c3cc(=O)n(C)cn3)cc2O)cn1)[C@@H]1CC2CC[C@H](N2)[C@@H]1F (single isomer, unassigned) [Compound 47E1] : reported MDCK-MDR1: % Recov A-B (%) = ?
Response: 74
